experiment: Antiproliferative activity against HUVEC after 72 hrs by resazurin dye reduction assay; type: cell-based; conditions: human, HUVEC cells
measured_attribute: GI50 at 72 h (µM)
Please respond with the number in µM and leave the unit unwritten.

Param item = "CCCCCCCCCCCC/C=C\N(NC(=O)COC)C(=O)OC(C)(C)C" ; retrieve measured GI50 at 72 h. 15.8

Param item = "CCCCCCCCCCNNC(=O)COC" ; retrieve measured GI50 at 72 h. 156

Param item = "CCCCCCCCCCCCCCN(N)C(=O)OC(C)(C)C" ; retrieve measured GI50 at 72 h. 27.1

Param item = "CCCCCCCCCCN(NC(=O)COC)C(=O)OC(C)(C)C" ; retrieve measured GI50 at 72 h. 22.9

Param item = "CCCCCCCCCCCCCCN(NC(=O)COC)C(=O)OC(C)(C)C" ; retrieve measured GI50 at 72 h. 12.2

Param item = "CCCCCCCC/C=C\N(NC(=O)COC)C(=O)OC(C)(C)C" ; retrieve measured GI50 at 72 h. 85.5

The measured values listed here are drawn from ChEMBL document CHEMBL2439994.
